Target: HLA-B*2705 expressed on C1R-neo cells (human, UniProt P01889 25-362; P61769 21-119)
Test: ECL cell binding, C1R-neo B*2705 cells, pH 7.2
Exercise: state measured max RLU for each of the binders provided.
Answers are plain numbers, in RLU.

- binder: "H4H2499N17 (antibody, V domains shown) VH: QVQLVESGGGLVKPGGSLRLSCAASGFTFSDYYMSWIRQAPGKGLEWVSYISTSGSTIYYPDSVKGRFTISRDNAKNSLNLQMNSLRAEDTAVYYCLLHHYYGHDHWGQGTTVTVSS VL: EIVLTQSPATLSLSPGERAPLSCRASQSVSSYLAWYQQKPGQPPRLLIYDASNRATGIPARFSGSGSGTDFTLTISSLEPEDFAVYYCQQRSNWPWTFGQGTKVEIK"
  max RLU, RLU: 18900
- binder: "H4H2499N18 (antibody, V domains shown) VH: QVQLVESGGGLVKPGGSLRLSCAASGFTFSDYYMSWIRQAPGKGLEWVSYISTSGSTIYYPDSVKGRFTISRDNAKNSLNLQMNSLRAEDTAVYYCLHHHYYGHDHWGQGTTVTVSS VL: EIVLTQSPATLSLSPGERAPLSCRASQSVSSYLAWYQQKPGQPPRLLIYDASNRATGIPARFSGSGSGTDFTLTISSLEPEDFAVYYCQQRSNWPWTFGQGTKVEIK"
  max RLU, RLU: 13100

Continue with the binder presented below.
Query: Data request, read-out max RLU, for H4H2499N14 (antibody, V domains shown) VH: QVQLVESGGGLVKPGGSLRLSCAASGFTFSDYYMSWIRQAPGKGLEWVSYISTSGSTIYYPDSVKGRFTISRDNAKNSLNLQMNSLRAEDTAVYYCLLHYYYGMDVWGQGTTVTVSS VL: EIVLTQSPATLSLSPGERAPLSCRASQSVSSYLAWYQQKPGQPPRLLIYDASNRATGIPARFSGSGSGTDFTLTISSLEPEDFAVYYCQQRHHWPWTFGQGTKVEIK
Reply: 17300

Every entry's value here was drawn from patent US20130259876A1.
